# system: T1, human VEGF-A (human, UniProt P15692-4 27-191, limits assumed)
# T1 construct: also called huVEGF-A
# T1 sequence (P15692 other isoform, or with tags, fused parts or gaps limits assumed): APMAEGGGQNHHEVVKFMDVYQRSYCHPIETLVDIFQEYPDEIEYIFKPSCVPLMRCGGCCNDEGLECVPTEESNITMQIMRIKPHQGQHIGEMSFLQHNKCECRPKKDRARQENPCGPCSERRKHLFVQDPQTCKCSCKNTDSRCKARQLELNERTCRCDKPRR
# experiment: SPR (Biacore), antibody captured by anti-human Fc, VEGF-A injected
Assign pKd to each entry below.
Answers are plain numbers, as −log10 of the molar value.

Known results for binders:
// query pKd value for entry hBEW-5C3.5 (antibody, V domains shown, Humanized IgG made from pHybE vectors in HEK293 cells) VH: EIQLVQSGAEVKKPGSSVKVSCKASGYTFTNYGVYWVKQAPGQGLEYMGWINTETGKPTYADDFKGRFTFTLDKSTSTAYMELSSLRSEDTAVYFCARARQLDWFVYWGQGTLVTVSS VL: DTQLTQSPSSLSASVGDRVTISCRARESLTTSLSWFQQKPGKQPKLLIYGASKLESGVPSRFSGSGSGTDFTLTISSLQPEDFATYFCQQSWYDPPTFGGGTKVEIK
11.07

Now consider hBDB-4G8.12 (antibody, V domains shown, Humanized IgG made from pHybE vectors in HEK293 cells) VH: EIQLVQSGAEVKKPGASVKVSCKASGYTFTNYGMYWVRQAPGQGLEYMGWINTETGKPTYADDFKGRFTFTLDTSTSTAYMELRSLRSDDTAVYFCARTNYYYRSYIFYFDYWGQGTMVTVSS VL: DTVLTQSPATLSLSPGERATLSCRASESVSTHMHWYQQKPGQAPRLLIYGASNLESGVPARFSGSGSGTDFTLTISSLEPEDFAVYFCQQSWNDPFTFGQGTKLEIK and answer again.
11.92

New cases:
Query: pKd; subject: hBEW-9E10.5 (antibody, V domains shown, Humanized IgG made from pHybE vectors in HEK293 cells) VH: EIQLVQSGAEVKKPGSSVKVSCKASGYTFTNYGMYWVKQAPGQGLEYMGWIDTETGRPTYADDFKGRFTFTADKSTSTAYMELSSLRSEDTAVYFCARWSGDTTGIRGPWFAYWGQGTLVTVSS VL: DIRMTQSPSSLSASVGDRVTITCLASEDIYSDLAWYQQKPGKSPKLLIYNANGLQNGVPSRFSGSGSGTDYTLTISSLQPEDVATYFCQQYNYFPGTFGQGTKLEIK
10.82

Origin of measurements: patent US20170015742A1
